Assay: NCI Yeast Anticancer Drug Screen. Data for the sgs1 mgt1 strain (AID 161);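 also: 0% = growth of cultures given vehicle only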
Conditions: S. cerevisiae sgs1 mgt1 strain, at 50.0 µM, hits give high values
Description: Growth inhibition of yeast strains with defined genetic alterations is measured as a screen for potential anti-cancer activity. Selected strains with alterations in DNA damage repair or cell cycle control were exposed to compounds and growth inhibition was measured relative to vehicle treated controls. The strain used in this assay is sgs1 mgt1
This is part of a sample that, as a whole, favours compounds with a hit. Of some 79,000 tested, about 15% had one in any assay. Active and inactive are the calls of the source. Rule as the data show it: active = growth inhibition above about 70%; inactive = the rest.
Metric: growth inhibition

>>> result("S=c1sc2nc(Cl)nc(Cl)c2s1")
"89.5% (active)"
>>> result("ON(Cc1ccccc1)C(=S)c1ccccc1")
"91.5% (active)"
>>> result("COc1cc(OC)c(C(c2cc3c(cc2O)OCO3)N2CCOCC2)c(OC)c1 (centres undefined)")
"50.3% (inactive)"
>>> result("O=C1C(Cl)=C(N2C(=O)CCC2=O)C(=O)c2ccccc21")
"91.6% (active)"
